molecular target: T1, recombinant human CD3 epsilon/gamma heterodimer (human, UniProt P07766 23-126; P09693 23-116); assay: Octet BLI, mAb on FAB2G sensor, hCD3 E/G 200-50 nM; R^2 0.99
T1 construct: Recombinant protein in solution (200-50 nM) in the Octet assay; also called hCD3 E/G
T1 sequence (P07766 23-126, chain 1 of 2): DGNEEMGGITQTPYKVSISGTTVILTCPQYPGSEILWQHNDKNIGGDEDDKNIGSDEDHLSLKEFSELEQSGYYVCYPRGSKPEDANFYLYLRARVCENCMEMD
T1 sequence (P09693 23-116, chain 2 of 2): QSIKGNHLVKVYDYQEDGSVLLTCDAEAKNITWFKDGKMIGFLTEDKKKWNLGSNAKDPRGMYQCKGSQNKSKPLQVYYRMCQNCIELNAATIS
Reported kon values for the following binders.
Entry rule: numbers only, all in M⁻¹ s⁻¹.

Here's what some known entries look like.
1) ABL-CD3-5 (antibody, V domains shown, Chimeric hybridoma mAb: human V, CH1, upper hinge; mouse middle hinge, CH2, CH3) VH: EVQLVESGGGLVQPGGSLRLSCAASGFTFSRYSMNWVRQAPGKGLEWVSYISSSSSSIYYADSVKGRFTISRDNAKNSLYLQMNSLRDEDTAVYYCARDRRATLDYWGQGTLVTVSS VL: NFMLTQPHSVSESPGKTVTISCTRSSGSIASNYVQWYQQRPGSSPTTVIYEDNQRPSGVPDRFSGSIDSSSNSASLTISGLKTEDEADYYCQSYDSSNHVFGGGTKLTVL ... 423000
2) ABL-CD3-56 (antibody, V domains shown, Chimeric hybridoma mAb: human V, CH1, upper hinge; mouse middle hinge, CH2, CH3) VH: EVQLVESGGGLVKPGGSLRLSCVASGFTFSRYSMNWVRQAPGKGLEWVSSISSSSRYTYYADSLKGRFIMSRDNAKNSLFLQMNSLRAEDTAVYYCARNLYNALDYWGQGTLVTVSS VL: FMLTQPHSVSESPGKTVTISCTRSSGSIASNYVQWYQQRPGSSPTTVIYEDNQRPSGVPDRFSGSIDSSSNSASLTISGLQTEDEADYYCQSYDSSNRVFGGGTKLTVL ... 109000
3) ABL-CD3-48 (antibody, V domains shown, Chimeric hybridoma mAb: human V, CH1, upper hinge; mouse middle hinge, CH2, CH3) VH: EVQLVESGGGLVKPGGSLRLSCAASGFTFSSYTMNWVRQAPGKGLEWVSSISGSGSYIYYADSVKGRFTISRDNAKNSLYLQMNSLRAEDTAVYYCAREPPTLGMDYWGQGTLVTVSS VL: NFMLTQPHSVSESPGKTVTISCTRSSGSIASNYVQWYQQRPGSSPTTVIYEDNQRPSGVPDRFSGSIDSSSNSASLTISGLKTEDEADYYCQSFDSSNRVFGGGTKLTVL ... 100000

State, in one line, measured kon of ABL-CD3-53 (antibody, V domains shown, Chimeric hybridoma mAb: human V, CH1, upper hinge; mouse middle hinge, CH2, CH3) VH: EVQLVESGGGLVKPGGSLRLSCAASGFTFSSYTMNWVRQAPGKGLEWVSSITTSSSYIYYADSVKGRFTISRDNAKNSLYLQMNSLRAEDTAVYYCARVTFDAFDIWGQGTMVTVSS VL: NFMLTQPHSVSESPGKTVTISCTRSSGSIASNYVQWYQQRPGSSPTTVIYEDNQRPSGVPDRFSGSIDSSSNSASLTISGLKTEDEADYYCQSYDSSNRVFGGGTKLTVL
80500
